Some compounds, each annotated with its measured IC50.
# Assay Target: interaction between GST-MAGEA11 MHD and FAM-PCF11_4 peptide (MAGE-A11:PCF11) (Homo sapiens (Human), UniProt P43364)
# Sequence (P43364 218-429): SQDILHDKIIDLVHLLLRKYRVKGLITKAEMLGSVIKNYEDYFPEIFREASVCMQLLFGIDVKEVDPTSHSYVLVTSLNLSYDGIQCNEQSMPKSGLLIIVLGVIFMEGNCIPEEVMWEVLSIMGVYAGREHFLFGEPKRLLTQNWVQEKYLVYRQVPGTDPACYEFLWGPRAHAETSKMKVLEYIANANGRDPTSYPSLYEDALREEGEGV
# Method Notes: TR-FRET dose response competition assay for disruption of MAGE-A11:PCF11 binding
# Condition Set: Dose response TR-FRET screening of nine scaffold groups against MAGE-A11:PCF11; read-out: consensus IC50
Report the value in µM with no unit label.

Compound	Observable	Output Unit	Result Number
Cc1ccc(S(=O)(=O)c2nc(-c3ccc(Br)cc3)oc2N2CCOCC2)cc1	IC50	µM	69.9
O=C1c2ccccc2NC(c2ccc(F)c(Br)c2)N1CCCN1CCOCC1 (centres unmarked)	IC50	µM	68
CCn1c2ccccc2c2cc(CN3CCN(S(C)(=O)=O)CC3)ccc21	IC50	µM	69.9
COc1ccc(F)cc1CNCCCNc1ccnc2cc(Cc3c(Cl)cccc3Cl)ccc12	IC50	µM	12.2
CCCCCn1c(-c2cccc(F)c2)nc2c1c(=O)[nH]c(=O)n2CCCC	IC50	µM	69.9
C=CCOc1ccc(-c2nc3c(c(=O)[nH]c(=O)n3Cc3ccccc3)n2CCC)cc1Br	IC50	µM	69.9
COc1ccc(C2Nc3ccccc3C(=O)N2Cc2ccc(F)cc2)cc1 (centres unmarked)	IC50	µM	69.9

Now turn to the next compound.
Challenge: I have this compound here, `O=S(=O)(c1ccc(Cl)cc1)c1nc(-c2cccc(Br)c2)oc1N1CCOCC1` , and I need its recorded IC50.
Response given: 9.2

====

# Method Notes: High throughput Caco-2 permeability
# Type: in vitro ADME
# Condition Set: human, Caco-2, pH 7.4, basolateral to apical, 10 μmol/l, 2 h, 37° C.; read-out: Caco-2 permeability, B/A
Papp at 2 h, 10 μmol/l strictly under 10 ×10⁻⁶ cm/s means Fulfilled; at 10 ×10⁻⁶ cm/s or over means Not fulfilled.

Structure Notation	Class
Brc1ccc2c(NCCCNCc3ccc4[nH]ccc4c3)ccnc2c1	Not fulfilled
C=CC(=O)N(CCCNc1ccnc2ccccc12)Cc1ccc2[nH]ccc2c1	Not fulfilled
Cn1ccc2cc(CNCCCNc3ccnc4cc(C(F)(F)F)ccc34)ccc21	Not fulfilled
Clc1ccc2c(NCCCNCc3ccc4[nH]ccc4c3)ccnc2c1	Not fulfilled
CC(C)(C)c1ccc(-c2ccc3c(NCCCNCc4ccco4)ccnc3c2)cc1	Fulfilled
FC(F)(F)c1ccc2c(NCCCNCc3ccc4[nH]ccc4c3)ccnc2c1	Not fulfilled
FC(F)(F)c1ccc2c(NCCCNCc3ccco3)ccnc2c1	Not fulfilled

Challenge: Given `CC(C)(C)c1ccc(-c2ccc3c(NCCCNCc4ccc5[nH]ccc5c4)ccnc3c2)cc1` , is recorded Papp at 2 h, 10 μmol/l strictly lower than 10 ×10⁻⁶ cm/s?
Response given: Fulfilled

====

# Method Notes: Solubility assay (μSOL Evolution, UV)
# Type: physicochemical
# Condition Set: aqueous buffer, kinetic from dmso stock; 18 h at RT in buffer
Some molecules, each annotated with its measured log10(solubility at 18 h).
// do not treat as linear: log10 of solubility at 18 h, unit µM

Structure Notation	Result Number
Brc1ccc2c(NCCCNCc3ccc4[nH]ccc4c3)ccnc2c1	1.76
Cn1ccc2cc(CNCCCNc3ccnc4cc(C(F)(F)F)ccc34)ccc21	1.29
C=CC(=O)N(CCCNc1ccnc2ccccc12)Cc1ccc2[nH]ccc2c1	1.54

Challenge: I have this molecule here, `CC(C)(C)c1ccc(-c2ccc3c(NCCCNCc4ccc5[nH]ccc5c4)ccnc3c2)cc1` , and I need its recorded log10(solubility at 18 h).
Response given: -0.17

Challenge: I have this molecule here, `Clc1ccc2c(NCCCNCc3ccc4[nH]ccc4c3)ccnc2c1` , and I need its recorded log10(solubility at 18 h).
Response given: 1.78

Challenge: I have this molecule here, `FC(F)(F)c1ccc2c(NCCCNCc3ccc4c(c3)OCO4)ccnc2c1` , and I need its recorded log10(solubility at 18 h).
Response given: 2.11

Challenge: I have this molecule here, `FC(F)(F)c1cc(-c2ccc3c(NCCCNCc4ccc5[nH]ccc5c4)ccnc3c2)cc(C(F)(F)F)c1` , and I need its recorded log10(solubility at 18 h).
Response given: -0.92

Challenge: I have this molecule here, `FC(F)(F)c1ccc2c(NCCCNCc3ccco3)ccnc2c1` , and I need its recorded log10(solubility at 18 h).
Response given: 2.08

====

# Assay Target: interaction between GST-MAGEA11 MHD and FAM-PCF11_4 peptide (MAGE-A11:PCF11) (Homo sapiens (Human))
# Method Notes: TR-FRET dose response competition assay for disruption of MAGE-A11:PCF11 binding
# Condition Set: Table 8, representative compounds; read-out: TR-FRET IC50
Observable: pIC50
Remember, pIC50 is on a log scale: it is -log10 of the molar concentration.

Record excerpt, results attached:
Compound	pIC50
COc1cccc(Oc2ccc3c(NCCCNCc4cccc(OC)c4O)ccnc3c2)c1 [SJ000311215]	4.16
COc1ccc(Oc2ccc3c(NCCCNCc4cc(F)ccc4OC)ccnc3c2)cc1 [SJ000311221]	4.33
Nc1ccccc1CNCCCNc1ccnc2cc(Cl)ccc12 [SJ000523055]	4.16
COc1cccc(F)c1CNCCCNc1ccnc2cc(Cl)ccc12 [SJ000311328]	4.16
CC(C)CCc1ccc2c(NCCCNCc3cccc4c3OCO4)ccnc2c1 [SJ000311248]	4.56
COc1ccc(CNCCCNc2ccnc3cc(Cl)ccc23)cc1O [SJ000311192]	4.16

Challenge: I have this compound here, COc1ccc(F)cc1CNCCCNc1ccnc2cc(Cc3cccc(C(F)(F)F)c3)ccc12 [SJ000311301] , and I need its recorded pIC50.
Response given: 4.65

Challenge: I have this compound here, Oc1ccccc1CNCCCNc1ccnc2cc(Cl)ccc12 [SJ000311187] , and I need its recorded pIC50.
Response given: 4.16

Challenge: I have this compound here, CCC(CC)c1ccc2c(NCCCNCc3cccc4c3OCO4)ccnc2c1 [SJ000311268] , and I need its recorded pIC50.
Response given: 4.54

====

# Assay Target: MAGE-A11:PCF11 (Homo sapiens (Human))
# Method Notes: TR-FRET single point screening at 15 μM
# Type: binding
# Design: unit not given here
# Condition Set: single point TR-FRET screening of quinoline compounds against MAGE-A11:PCF11; 15 μM
# From the text: TR-FRET Assays and High-throughput Screen. Terbium-anti-GST antibody, 1 M Tris pH 7.5 1 M MgCl2 and 1 M DTT were purchased from Invitrogen (Carlsbad, CA), BSA was purchased from Sigma (St. Louis, MO). Dimethyl sulfoxide (DMSO) was purchased from Fisher Scientific (Pittsburgh, PA). Black 384-well low volume plates and 384-well polypropylene compound plates were purchased from Corning Incorporated (Tewksbury, MA). […]
Some compounds, each annotated with its measured TR-FRET signal.

Compound	TR-FRET signal
CCOC(=O)c1cnc2ccc(Br)cc2c1NCCCN1CCOCC1 [SJ000176507]	−22
CCCN(CCCNc1c2ccc(Cl)cc2nc2ccc(OC)cc12)Cc1cncc(Br)c1 [SJ000522975]	−89.08
NC(=O)CC(Nc1c2ccccc2nc2ccccc12)C(=O)O (stereo not drawn) [SJ000044383]	20.1
CCCN(CCCNc1ccnc2cc(Cl)ccc12)Cc1cc2ccccc2o1 [SJ000522991]	9.295
CCCN(CCCNc1ccnc2cc(C(F)(F)F)ccc12)Cc1ccc(F)cc1 [SJ000523070]	26.44
CCCN(CCCNc1c2ccc(Cl)cc2nc2ccc(OC)cc12)Cc1cccnc1 [SJ000575152]	−23.4
COc1ccccc1CN(CCCNc1ccnc2cc(Cl)ccc12)Cc1ccccc1 [SJ000522722]	4.43
Clc1ccc2c(NCCCNCC3CCOC3)ccnc2c1 (stereo not drawn) [SJ000521038]	0.4026

Challenge: I have this compound here, Cc1cc(C)c(CN(CCCNc2ccnc3cc(Cl)ccc23)Cc2ccccc2)c(C)c1 [SJ000361169] , and I need its recorded TR-FRET signal.
Response given: 31.19

Challenge: I have this compound here, CCCN(CCCNc1c2ccc(Cl)cc2nc2ccc(OC)cc12)Cc1ccccc1O [SJ000520926] , and I need its recorded TR-FRET signal.
Response given: −91.84

Challenge: I have this compound here, CCCN(CCCNc1ccnc2cc(C(F)(F)F)ccc12)Cc1cccc(OC(F)(F)F)c1 [SJ000520473] , and I need its recorded TR-FRET signal.
Response given: 9.085

Challenge: I have this compound here, CCOC(=O)c1cnc2c(C)cc(Cl)cc2c1NCCCN1CCOCC1 [SJ000174094] , and I need its recorded TR-FRET signal.
Response given: −10.52

Challenge: I have this compound here, O=[N+]([O-])c1cccc(CN(CCCNc2ccnc3cc(Cl)ccc23)Cc2ccccc2)c1 [SJ000361178] , and I need its recorded TR-FRET signal.
Response given: 17.02

Challenge: I have this compound here, CCCCCNCCCNc1ccnc2cc(Cl)ccc12 [SJ000523057] , and I need its recorded TR-FRET signal.
Response given: 25.82

Challenge: I have this compound here, Clc1ccc2c(NCCCN(Cc3ccccc3)Cc3ccccn3)ccnc2c1 [SJ000312678] , and I need its recorded TR-FRET signal.
Response given: −3.851

Challenge: I have this compound here, CCCN(CCCNc1ccnc2cc(C(F)(F)F)ccc12)Cc1ccc(F)c(F)c1 [SJ000361272] , and I need its recorded TR-FRET signal.
Response given: 13.84

Challenge: I have this compound here, CCCN(CCCNc1ccnc2cc(Cl)ccc12)Cc1ccc(-c2ccccc2)cc1 [SJ000523039] , and I need its recorded TR-FRET signal.
Response given: 30.23

Challenge: I have this compound here, COc1cccc(Oc2ccc3c(NCCCNCc4ccco4)ccnc3c2)c1 [SJ000311214] , and I need its recorded TR-FRET signal.
Response given: 29.11
